Reference for the values: ChEMBL document CHEMBL4483862

# System: Plasmodium berghei
# Method Summary: Luciferase/luciferin-expressing antifolate-resistant parasites were used to infect a culture of HepG2 cells that were pre-incubated with compounds. Infected hepatocytes emit light due to the luciferase reaction. Assay results are presented as the percent inhibition of light emission compared to control. […]
# Assay type: functional
# Reported Conditions: sporozoite, HEPG2TOX_HILL_SLOPE 8.19, HEPG2TOX_R_SQUARED 0.612, PBLUC_HILL_SLOPE 20.8, PBLUC_R_SQUARED 0.622, read-out: LUCIFERASE INFECTION ASSAY - IC50
Endpoint Name: IC50 (µM)
Numeric only. Scale: µM

May I ask what IC50 has been recorded for CNC(=O)c1ccc(/C=C/C(=O)c2ccc3c4c(cccc24)CC3)cc1 ? 8.38

---

# System: Plasmodium berghei
# Method Summary: Luciferase/luciferin-expressing antifolate-resistant parasites were used to infect a culture of HepG2 cells that were pre-incubated with compounds. Infected hepatocytes emit light due to the luciferase reaction. Assay results are presented as the percent inhibition of light emission compared to control. […]
# Format: functional
# Reported Conditions: sporozoite, PBLUC_HILL_SLOPE 41.1, PBLUC_R_SQUARED 0.0887, read-out: LUCIFERASE INFECTION ASSAY - IC50
Endpoint Name: pIC50
In plain terms, pIC50 is the concentration in mol/L turned into minus its base-10 logarithm.

Give recorded pIC50 with Plasmodium berghei for the following compound: CCCn1c(NC(=O)C2CCCN2C(=O)C23CC4CC(CC(C4)C2)C3)nc2ccccc21 (stereo unspecified) 5.04

---

# System: Plasmodium berghei
# Method Summary: Luciferase/luciferin-expressing antifolate-resistant parasites were used to infect a culture of HepG2 cells that were pre-incubated with compounds. Infected hepatocytes emit light due to the luciferase reaction. Assay results are presented as the percent inhibition of light emission compared to control. […]
# Type: functional
# Reported Conditions: sporozoite, FFLUC_HILL_SLOPE 16.6, FFLUC_R_SQUARED 0.154, PBLUC_HILL_SLOPE 1.1, PBLUC_R_SQUARED 0.764, read-out: LUCIFERASE INFECTION ASSAY - IC50
Endpoint Name: IC50 (nM)
Reply with just the number (in nM).

For the molecule shown here, CC(NCC(=O)N1c2ccc(S(N)(=O)=O)cc2CC1C)C1CC2CCC1C2 (stereo unspecified) , give the reported IC50. 1030

---

Reported IC90 values are given for each entry in this list.
# Tested on: Plasmodium berghei
# Method Summary: Luciferase/luciferin-expressing antifolate-resistant parasites were used to infect a culture of HepG2 cells that were pre-incubated with compounds. Infected hepatocytes emit light due to the luciferase reaction. Assay results are presented as the percent inhibition of light emission compared to control. […]
# Assay type: functional
# Reported Conditions: sporozoite, read-out: LUCIFERASE INFECTION ASSAY - IC90
Give the number; µM is assumed, so skip it.

Substance Smiles | Endpoint Name | Units | Measured
O=C(C(/C=N/O)=N/Nc1ccc(C(F)(F)F)cc1)c1ccc(Br)cc1 | IC90 | µM | 3.98

Next molecule, IC90 to be filled in.
For the molecule shown here, CNc1snc(C)c1C(=O)OCc1ccc(-n2cccn2)cc1 , give the reported IC90. 1.04

---

# System: Plasmodium berghei
# Method Summary: Luciferase/luciferin-expressing antifolate-resistant parasites were used to infect a culture of HepG2 cells that were pre-incubated with compounds. Infected hepatocytes emit light due to the luciferase reaction. Assay results are presented as the percent inhibition of light emission compared to control. […]
# Assay type: functional
# Reported Conditions: sporozoite, HEPG2TOX_HILL_SLOPE 10, HEPG2TOX_R_SQUARED 0.966, PBLUC_HILL_SLOPE 4.42, PBLUC_R_SQUARED 0.274, read-out: LUCIFERASE INFECTION ASSAY - IC50
Endpoint Name: pIC50
The scale used: pIC50 is minus the common logarithm of the concentration in molar units.

What pIC50 appears in the records for this compound with Plasmodium berghei? NS(=O)(=O)c1ccc(CCNCC(=O)N2CCC(Cc3ccccc3)CC2)cc1 5.11
